- Tested on: Nucleic Acid
- Protocol Text: Binding affinity to 5'-AAATTT-3' of hairpin DNA (unknown origin) in cacodylic acid buffer at pH 6.5 assessed as change in melting temperature at 3 uM by thermal denaturation assay
- Type: nucleic-acid assay
Answer Not satisfied if ΔTm is under 9 °C, and Satisfied if it is 9 °C or more.

# Smiles Input, Label
rows = [
    ("CN(C)CCCNC(=O)c1cc(NC(=O)c2cc(NC(=O)c3cc(NC=O)cn3C)cn2CCCN)cn1C", "Satisfied"),
    ("CN(C)CCNC(=O)c1nc(NC(=O)c2cc(NC(=O)c3nc(NC=O)cn3C)cn2CCCN)cn1C", "Satisfied"),
    ("CN(C)CCCNC(=O)c1cc(NC(=O)c2nc(NC(=O)c3cc(NC=O)cn3CCCN)cn2C)cn1C", "Satisfied"),
    ("CN(C)CCCNC(=O)c1cc(NC(=O)c2cc(NC(=O)c3nc(NC=O)cn3C)cn2CCCN)cn1C", "Not satisfied"),
    ("CN(C)CCNC(=O)c1nc(NC(=O)c2cc(NC(=O)c3nc(NC=O)cn3C)cn2C)cn1C", "Not satisfied"),
]

---

- Tested on: Nucleic Acid
- Protocol Text: Binding affinity to 5'-ACGCGT-3' of hairpin DNA (unknown origin) in cacodylic acid buffer at pH 6.5 assessed as change in melting temperature at 3 uM by thermal denaturation assay
- Type: nucleic-acid assay
Measured Endpoint: ΔTm

# Smiles Input, Result
rows = [
    ("CN(C)CCCNC(=O)c1cc(NC(=O)c2cc(NC(=O)c3nc(NC=O)cn3C)cn2C)cn1C", "2 °C"),
    ("CN(C)CCCNC(=O)c1cc(NC(=O)c2cc(NC(=O)c3nc(NC=O)cn3C)cn2CCCN)cn1C", "0 °C"),
    ("CN(C)CCCNC(=O)c1cc(NC(=O)c2nc(NC(=O)c3cc(NC=O)cn3C)cn2C)cn1C", "3 °C"),
    ("CN(C)CCCNC(=O)c1cc(NC(=O)c2nc(NC(=O)c3cc(NC=O)cn3CCCN)cn2C)cn1C", "0 °C"),
    ("CN(C)CCNC(=O)c1nc(NC(=O)c2cc(NC(=O)c3nc(NC=O)cn3C)cn2CCCN)cn1C", "> 24 °C"),
    ("CN(C)CCNC(=O)c1nc(NC(=O)c2cc(NC(=O)c3nc(NC=O)cn3C)cn2C)cn1C", "9 °C"),
    ("CN(C)CCCNC(=O)c1cc(NC(=O)c2cc(NC(=O)c3cc(NC=O)cn3C)cn2CCCN)cn1C", "0 °C"),
]
